# Test Summary: basal RPMI8226 mitochondrial membrane potential changes, profiling panel, cell-based, JC-1 fluorescence, 24 h, 100 nL compound (AID 1169); also: test concentration not given here
# Measurement Conditions: RPMI8226 myeloma, JC-1 mitochondrial potential fluorescence, higher = more signal
Form field: z-score (one value per entry).
Answer with the value's number alone.

# annotated cases, reported z-score shown
{"Compound": "CC(=O)n1cc(C(O)C2C=CC3C(=O)N(c4ccccc4)C(=O)C3N2Nc2ccc([N+](=O)[O-])cc2)c2ccccc21 (stereo unspecified)", "Recorded Endpoint": "z-score", "Measured Result": -0.412}
{"Compound": "CN(C)CCCCCCNC(=O)[C@H]1C[C@H]2C(=O)N3CCC[C@H]3C(=O)N2[C@H]1c1ccc(O)cc1", "Recorded Endpoint": "z-score", "Measured Result": 0.262}
{"Compound": "COC(=O)[C@@]1(Cc2ccccc2)[C@H]2c3cc(C(=O)N(C)C)n(Cc4ccsc4Br)c3C[C@H]2CN1C(=O)c1ccccc1", "Recorded Endpoint": "z-score", "Measured Result": -0.776}
{"Compound": "CCOC(=O)C1=CC[C@@H](c2ccccc2)N(S(=O)(=O)c2ccc(C)cc2)[C@H]1c1ccccc1C", "Recorded Endpoint": "z-score", "Measured Result": -0.275}
{"Compound": "C=C(COC)/C(=C/C[C@H](OC(C)=O)c1ccc(CO)o1)c1cc(C(=O)OC)ccc1OC", "Recorded Endpoint": "z-score", "Measured Result": -0.0437}

Which z-score is reported for this compound? O=C(CS)NCCCCCCNC(=O)[C@@H]1C[C@@H]2C(=O)NCC(=O)N2[C@@H]1c1cccc(OCCO)c1
0.116

Try this compound next: CCCC[C@@H]1C[C@H]1[C@@H](NC(=O)c1ccco1)c1ccc(-c2ccccc2)cc1
-0.0532

Try this compound next: O=C(CS)NCCCCCCNC(=O)[C@@H]1C[C@@H]2C(=O)N[C@@H](Cc3ccccc3)C(=O)N2[C@@H]1c1cccc(OCCO)c1
0.198

Try this compound next: CCCC[C@@H]1C[C@H]1[C@@H](NC(=O)c1ccccc1)c1ccc(C(=O)OC)cc1
0.461

Try this compound next: CCCCCCc1nc(-c2ccc(OC)nc2)cc2c1[Si](C(C)C)(C(C)C)O[C@H]2c1ccccc1
-0.198

Try this compound next: C=CCN1C(=O)[C@@]2(CC=C)N=C(c3ccc(OCCCO)cc3)O[C@H]2c2ccccc21
-1.02

Try this compound next: [N-]=[N+]=Nc1ccccc1[C@H]1OC(c2ccc(OCCCO)cc2)=N[C@@]1(CCS(=O)(=O)c1ccccc1)C(=O)NCC(O)CO (stereo partly specified)
0.311

Try this compound next: COCCOC(=O)N1C(=O)[C@@]2(c3cc(C#CCCO)ccc31)[C@H](C(=O)N1CCCCCCC1)[C@H]1C(=O)O[C@H](c3ccccc3)[C@H](c3ccccc3)N1[C@@H]2c1ccc(OCCO)cc1
-1.25

Try this compound next: Cc1ccc(N2C(=O)c3ccccc3[C@@H](C(=O)NC3CC3)[C@@H]2c2ccc(CO)cc2)nc1
0.755

Try this compound next: Cc1ccc([C@@H]2C[C@@H](Sc3ccccc3)[C@H](C(=O)O)CN2S(=O)(=O)c2ccc(C)cc2)cc1
-0.268

Try this compound next: COc1ccc([C@H]2OC[C@@H]3C[C@@H](Cc4ccccc4)C(=O)N32)cc1
0.183

###

# Test Summary: E. coli growth modulation, two-sided OD650, primary screen, E. coli filamentation project, strain DRC41, 24 h (AID 1093);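 also: MC1000 strain lacking acrAB efflux and sulA so SOS filamentation is blocked; test concentration not given here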
# Measurement Conditions: OD650, 24 h, higher = more signal, called active from +8 up or from −8 down
Recorded Endpoint: z-score
Answer with the value's number alone.

# annotated cases, reported z-score shown
{"Compound": "CC(C)C(=C=CC[C@H](O)c1ccc(OCCO)cc1)CCO", "Recorded Endpoint": "z-score", "Measured Result": -0.327}
{"Compound": "COCCOC(=O)N1C(=O)[C@@]2(c3cc(C#CC4(O)CCCCCC4)ccc31)[C@H](c1ccccc1OCCO)N1[C@H](c3ccccc3)[C@H](c3ccccc3)OC(=O)[C@H]1[C@@H]2C(=O)N1CCN(c2ncccn2)CC1", "Recorded Endpoint": "z-score", "Measured Result": 1.02}

Shift focus to the following entry.
Which z-score is reported for this compound? C=CCC(OC(C)=O)[C@@H]1[C@@H](N(Cc2ccc(-c3cccc(C(F)(F)F)c3)o2)C(=O)c2ccc(C)cc2)c2cc(OCCCO)ccc2N1C(=O)Cc1ccc2ccccc2c1 (stereo partly drawn)
1.6

###

# Test Summary: binders from COS7 lysate, DM2A8 probe, primary screen, torsin A project, cell lysate, small-molecule microarray, fluorescence 635/667 (AID 1065)
# Measurement Conditions: higher = more signal, COS7 lysate expressing mutant human TOR1A
// N strictly below -0.2 in composite z-score; Y otherwise

Reference set, count: 4
{"Compound": "C=C[C@H](CO)NS(=O)(=O)c1ccc(Br)cc1", "Class Name": "Y"}
{"Compound": "Cc1nc2cc(Br)ccc2c(=O)o1", "Class Name": "Y"}
{"Compound": "CC(C)NC(=O)[C@@H]1c2ccccc2C(=O)N(C2Cc3ccccc3C2)[C@H]1c1ccc(CO)cc1", "Class Name": "Y"}
{"Compound": "COC(=O)[C@@]1(Cc2ccccc2)[C@H]2c3cc(C(=O)N4CCCC4)n(Cc4ccc(S(C)(=O)=O)cc4)c3C[C@H]2CN1C(=O)c1ccccc1", "Class Name": "Y"}

Record Cc1ccc(S[C@]2(C(=O)NCCCN(C)C)CC(=O)N(Cc3cc(C(F)(F)F)cc(C(F)(F)F)c3)[C@@H]2c2ccc(CO)cc2I)cc1 ; criterion: composite z-score no lower than -0.2. Met?
Y

Try this compound next: O=C1N(Cc2ccccc2)c2ccccc2[C@@H]2OC(c3ccc(OCCCO)cc3)=N[C@]12CCS(=O)(=O)c1ccccc1
Y

Try this compound next: COc1ccc([Si](C)(C)[C@@H]2[C@@H](CC(=O)N3CCC[C@H]3CO)O[C@]3(C(=O)N(c4ccccc4)c4ccccc43)[C@H]2C)cc1
Y

Try this compound next: Cc1ccc(S[C@]2(C(=O)NCCCN(C)C)CC(=O)N(Cc3ccccc3C(F)(F)F)[C@@H]2c2ccc(CO)cc2)cc1
N

Try this compound next: [N-]=[N+]=NCc1ccccc1[C@@H]1OC(c2ccc(OCCCO)cc2)=N[C@]1(Cc1ccccc1)C(=O)NCC(O)CO (stereo not given in full)
Y

###

# Target: NADPH oxidase 2 (Homo sapiens)
# Test Summary: NOX2-dependent H2O2 signal modulators, primary screen, NOX inhibitor project, cell-based, HEK293-NOX2, PMA-stimulated, Amplex Red fluorescence (AID 1159); also: test concentration not given here
# Measurement Conditions: 45 min, higher = more signal, called active from +8 up or from −8 down
Recorded Endpoint: z-score
Answer with the value's number alone.

{"Compound": "C[N+](C)(C)CCCCNC(=O)[C@H]1C[C@H]2C(=O)N3CCC[C@H]3C(=O)N2[C@H]1c1cccc(OCCO)c1", "z-score": -1.52}

Which z-score is reported for this compound? COCCOC(=O)N1C(=O)[C@@]2(c3cc(C#CC4(O)CCCCCC4)ccc31)[C@H](c1ccc(OCCO)cc1)N1[C@H](c3ccccc3)[C@H](c3ccccc3)OC(=O)[C@H]1[C@@H]2C(=O)N1CCN(c2ncccn2)CC1
1.61

Try this compound next: NC(=O)NCC#Cc1ccc2c(c1)[C@]1(C(=O)N2)[C@H](c2ccc(O)cc2)N2[C@H](c3ccccc3)[C@H](c3ccccc3)OC(=O)[C@H]2[C@@H]1C(=O)O
0.879

Try this compound next: CC(C)C(=C=CC[C@@H](O)c1ccc(OCCO)cc1)C[C@@H](O)c1ccccn1
0.0116

Try this compound next: NC(=O)NCC#Cc1ccc2c(c1)[C@]1(C(=O)N2)[C@H](C(N)=O)[C@H]2C(=O)O[C@H](c3ccccc3)[C@H](c3ccccc3)N2[C@@H]1c1ccc(O)cc1
0.122

###

# Test Summary: small-molecule microarray binders of probe aLefty2, primary screen, biochemical, biotinylated probe, 635/667 nm fluorescence (AID 1094);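 also: score merges spot fluorescence near 667 nm with spot signal-to-noise ratio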
# Measurement Conditions: higher = more signal
Form field: composite z-score (one value per entry).
Answer with the value's number alone.

{"Compound": "COc1ccc(CCNC(=O)[C@@]2(C)c3ccccc3C(=O)N(C(C)C)[C@H]2c2ccc(CO)cc2)cc1", "Recorded Endpoint": "composite z-score", "Measured Result": -0.107}
{"Compound": "COC(=O)[C@@]1(Cc2ccc(F)cc2)[C@H]2c3cc(C(=O)N(C)C)n(Cc4ccc(Cl)c(C(F)(F)F)c4)c3C[C@H]2CN1C(=O)c1ccccc1", "Recorded Endpoint": "composite z-score", "Measured Result": 0.395}
{"Compound": "CN1C(=O)C2C=CC(C(O)c3ccccc3)N(N(c3ccccc3)c3ccccc3)C2C1=O (centres undefined)", "Recorded Endpoint": "composite z-score", "Measured Result": 0.603}

Shift focus to the following entry.
Which composite z-score is reported for this compound? COC(=O)[C@H](Cc1ccccc1)N1CC2=C[C@@H](C3CC3)n3c(=O)n(C)c(=O)n3[C@H]2[C@@H]1[C@@H](O)Cc1ccccc1
-0.136
